molecular target: AgSho1; assay: SPOT peptide array binding signal intensity (averaged, normalized) (arbitrary units (background-subtracted, floor 0; scale differs between SH3 domains)); higher = stronger binding of the SH3 domain to the peptide
measured metric: SPOT peptide array binding signal intensity

[[record]]
binder = "PSRRAPLQLPQLVNK"
value_measured = "≤ 0"

[[record]]
binder = "VNIPSPSSSPPPIPK"
value_measured = "≤ 0"


As a next step, examine the binder that follows.
Req: Find the recorded SPOT peptide array binding signal intensity belonging to SPLGAPPPPPHKDHL and report it.
Resp: ≤ 0
